Data origin: ChEMBL document CHEMBL5058577

Provide the reported Population Normal (%) of each item.
- System: Fibroblast
- testDetails: Multiplex assay against human fibroblast
- Assay type: toxicity, cell-based
- studyConditions: 48 h, 10 µM, compound concentration 10 uM, replicate 2
Your answer should be a plain number; it is taken to be in %.

Prompt: Which Population Normal (%) value is on record for CCCN1CCC[C@@H]2Cc3n[nH]cc3C[C@H]21.Cl [QUINPIROLE HYDROCHLORIDE] ?
Completion: 96

Prompt: How about this compound: N#Cc1c(N)nc(SCc2csc(-c3ccc(Cl)cc3)n2)c(C#N)c1-c1ccc(OCCO)cc1
Completion: 100

Prompt: COc1ccc2c(c1)C(C(=O)N(Cc1ccc(N(C)C)cc1)c1ccc(C(C)C)cc1)CCC2.Cl (stereo not drawn) , same question.
Completion: 99

Prompt: Let us now turn to O=C1COc2nccc(-c3ccccc3F)c2CN1Cc1cc(C(F)(F)F)cc(C(F)(F)F)c1
Completion: 94

Prompt: Another compound: CCOc1c2c(c(OCC)c3ncccc13)CN(c1ccc(CS(=O)(=O)NC(=O)Cc3ccccc3OC)cc1C)C2=O
Completion: 90

Prompt: Cool, now CN1CCN2c3ncccc3Cc3ccccc3C2C1 (stereo not drawn)
Completion: 97

Prompt: Then this compound: COc1cc(NC(=O)CCN2CCC(OC(=O)Nc3ccccc3-c3ccccc3)CC2)c(Cl)cc1CNC[C@H](O)c1ccc(O)c2[nH]c(=O)ccc12
Completion: 99

Prompt: Then what about the compound CN(C)c1ccnc2sc3c(=O)n(N4CCCCCC4)cnc3c12 ?
Completion: 93

Prompt: Next record, please: Cc1ccc(F)cc1C(=O)Nc1ccc(C(=O)N2Cc3cccn3Cc3ccccc32)c(Cl)c1
Completion: 94

Prompt: Now the same for O=C(O)c1cc2ccccc2c(Cc2c(O)c(C(=O)O)cc3ccccc23)c1O
Completion: 96

Prompt: And the next one, N[C@@]1(C(=O)O)CO[C@H]2[C@H](C(=O)O)[C@H]21 ?
Completion: 92

Prompt: Likewise for CC1(COc2ccc3c(c2)ncn3-c2ccc3cccc(N4CCC(N)CC4)c3n2)COC1 ?
Completion: 78

Prompt: // query: CSCC[C@H](NC=O)C(=O)N[C@@H](CC(C)C)C(=O)N[C@@H](Cc1ccccc1)C(=O)O
Completion: 70

Prompt: Also check CC(C)(C)c1ccc(S(=O)(=O)Nc2ccc(Cl)cc2C(=O)c2cc[n+]([O-])cc2)cc1
Completion: 95

Prompt: Here is the next compound: CN1CCN(c2nc3cc(C(F)(F)F)ccc3n3cccc23)CC1.O=C(O)/C=C\C(=O)O.O=C(O)/C=C\C(=O)O
Completion: 94

Prompt: Same again, this time with COc1c(C)cc(NC(=O)c2nn(Cc3ccc(F)cc3)c3c2CN(C(=O)c2ccc[nH]2)C[C@]3(C)C(N)=O)cc1C
Completion: 97

Prompt: Please give the result for c1cc(OCCCN2CCCCC2)ccc1CN1CCCCC1 too.
Completion: 96

Prompt: Same read-out for Cc1nc2ccc(Oc3ccc(F)cc3)cc2c(=O)n1C[C@H]1CCCN(C(C)C)C1.Cl ?
Completion: 96

Prompt: Next entry: CCNC1(C(N)=O)CCN(c2ncnc3c2nc(-c2ccccc2Cl)n3-c2ccc(Cl)cc2)CC1
Completion: 97

Prompt: Same question for Cc1ccccc1C(=O)Nc1ccc(C(=O)N2CCCC(N(C)C)c3ccccc32)cc1.Cl (stereo not drawn) please.
Completion: 96

Prompt: Moving on to the next compound: CCCC(CCC)C(=O)O
Completion: 94

Prompt: Also, CCCn1c(=O)c2[nH]c(C3CCCC3)nc2n(CCC)c1=O please.
Completion: 97

Prompt: Also need C[C@@H]1C[C@H]2[C@@H]3CCC4=CC(=O)C=C[C@]4(C)[C@@]3(F)[C@@H](O)C[C@]2(C)[C@@]1(O)C(=O)CO , thanks.
Completion: 92
